B1: TPR t1 (parent)
chain: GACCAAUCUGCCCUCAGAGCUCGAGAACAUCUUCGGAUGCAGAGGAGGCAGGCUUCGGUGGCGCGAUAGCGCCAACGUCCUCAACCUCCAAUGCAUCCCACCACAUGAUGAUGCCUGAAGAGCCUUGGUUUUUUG

variants of: B1; test: polymerase ribozyme fitness, log enrichment relative to wild type (log ratio); higher = more active; in vitro selection for triplet polymerase activity
# class assignment by measured polymerase ribozyme fitness (log ratio): low value = under -3, medium value = from -3 up to -1, high value = -1 and over

Past entries and their recorded results:
GACCAAUCUGCCCUCAGAGCUCGAGAACAUCUUCGGAUGCAGAGGAGGCAGGCUUCGGUGGCGCGAUAGCGCCAACGUCCUCAACCUCCAAUGCAUCCCAGCACAUGAUGAUGCCUGAACAGCCUUGGUUUUUUG    high value
GACCAAUCUGCCCUCAGAGCUCGAGAACAUCUUCGGAUGCAUAGGAGGCAGGCUUCGGUGGCACGAUAGCGCCAACGUCCUCAACCUCUAAUGCAUCCCACCACAUGAUGAUGCCUGAAGAGCCUUGGUUUUUUG    low value
GACCAAUCUGCCCUCAGAGCUCGAGAACAUCUUCGGAUGCAGAGGAGGCAGGCUUCGGUGGCGCGAUAGUGCCAACGUCCUCAACCUCCAAUGCAUCCCACCACAUGAUGAAGCCUGAAGAGCCUUGGUUUUUUG    high value
GACCAAUCUGCCCUUAGAGCUCGAGAACAUCUUCGGAUGCAGAGGAGGCAGGCUUCGGUGGCGCGAUAGCGCCAAUGUCCUCAACCUCCAAUGCAUCCCUCCACAUGAUGAUGCCUGAACAGCCUUGGUUUUUUG    high value
GACCAAUCUGCCCUCAGAGCUCGAGAACAUCUUCGGAUGGAGAGGAGGCAGGCUUCGGUGGCGCGAUAACGCCAACGUUCUCAACCUCCAAUGCAUCCCACCACAUGAUGAUGCCUGAAGAGCCUUGGUUUUUUG    medium value

GET /class?item= GACGAAUCUGCCCUCAGAGCUCGAGAACAUCUUCGGGUGCAGAGGAGGGAGGCUUCGGUGGCGCGAUAGCGCCAACGUCCUCAACCUCCAAUGCAUCCCACCACAUGAUGAUCCCUGAAGAGCCUUGGUUUUUUG
low value

Entry to check: GACCAAUCUGCCCUCAGAGCUCGAGAACAUCUUCGGAUGCAGAGGAUGUAGGCUUCGGUGGUGCGAUAGCGCCAACGUCCUCAACCUCCAAUGCAUCCCACCACAUGAUGAUGCCUUAAGAGCCUUGGUUUUUUG
low value

// repeat for GACCAAUCUGCCCUCAGAGCUCGAGAACAUCUUCGGAUGCAGAGGAGGCAGGCUUAGGUGGCGCGAUAGCGCCAACGUCCUCAACCUCCAAUGCAUCCCACCACAUGAUGAUACCUGAAGAGCCUUGGUUUUUUG and report
high value

Lookup GACCAAUCUGCCCUCACAGCUCGAGAACAUCUUCGGAUGCAGAGGGGGCAGGCUCCGGUGGCGCGAUAGCGCCAACGUCCUCAACCUCCAAUGCAUCCCACCACAUGAUGAUGCCUGAAGAGCCUUGGUUUUUUG
low value

And what about the variant GACCAAUCUGCCCUCAGAGCUCGAGAACAUCUUCGGAUGCAGAGGAGGGAGGCUCCGGUGGCGCGAUAGCGCCAAUGUCCUCAACCUCCAAUGCCUCUCACCACAUGAUGAUGCCUGAAGAGCCUUGGUUUUUUG ?
medium value

Further, for GACCAAUCUGCCCUCAGAGCUCGAGAACAUCUUCGGAUGCAGAGGAGGCAGGCUUCGGUGGCGCGGUAGCGCCAACGUCCUCAACCUCCAAUGCAUCCCACCACAUGAUGAUGCCUGAAGAGCCUUUGUUUUUUG ?
medium value

Proceed to GACCAAUCUGCCCUCAGAGCUCGAGAACAUCUUCGGAUGCAGAGGAGGCAGGCUUCGGUGGCGCGAUAGCGCCAACGUCCUCAACCUCGAAUGCAUCCCACCACAUGAGGAUGCCUGAAGAGCCUUGGUUUUUUG
low value

Then what about the variant GACCAAUCUGCCCUCAGAGCUCGAGAACAUCUUCGGAUGCAGAGGAGGCAGGCUUUGGUGGCGCGAUAGCGCCAACGUCCUCAACCUCCAAUGCAUUCCACCACAAGAUGAUGCCUGAAGAGCCUUUGUUUUUUG ?
high value

Repeat with GACCAAUCUUCCCUCAGAGCUGGAGAACAUCUUCGGAUGCAGAGGGGGCAGGCUUCGGUGGCGCGAUAGCGCCAAAGUCCUCAACCUCCAAUGCAUCCCACCACAUGAUGAUGCCUGUAGAGCCUUGGUUUUUUG
low value

Another variant: GACCAAUCUGCCCUCAGAGCUCGAGAACAUCUUCGGCUGCAGAGGCGGCAGGCUUCGGUGGUGCGAUAGCGCCAACGGCCUCAACCUCCAAUGCAUCCCACCACAUGAUGAUGCCUGAAGAGCCUUGGUUUUUUG
medium value

What do you have for GACCAAUCUGCCCUCAGAGCUCGAGAACAUCUUCGGAUGCAGAGGAGGCAGGCUUCGGUGGCGCGAUAGCCCCAACGUCCUCAACCUCCAAUGCAUUCCACCACAUGAUGAUGCCUCAAGAGCCUUGGUUUUUUG ?
low value

Next entry: GACCAAUCUGCCCUCAGAGCUCGAGAACAUCUUCGGAUGCAGAGGAGGCAGGCUUCGGUGGCGCGAUAGCACCAACGUCCUCAACCUCCAAUGCAUCCCACCACAUGAUGAUGCCUAAAGAGCCUUGGUUUUUUG
medium value

What do you get for GACCAAUCUGCCCUCAGAGCUCGAGAACAUCUUCGUAUGCAGAGGAGGCAGGCUUCGGUGGCGCGAUAGCGCCAACGUCCUCAACCUCCAAUGCAUCCCACAACAUGAUGAUGCCUGAAGAGUCUUGGUUUUUUG ?
medium value
